pIC50: −log10 of the molar value.
Target or system Rap guanine nucleotide exchange factor 4 (Homo sapiens, UniProt Q8WZA2); recorded quantity pIC50.
Parameter: pIC50

> print(dat)
                               given.smiles                               measured.on  observed.result
1     N#Cc1c(C2CCCCC2)nc(Nc2ccccc2)[nH]c1=O  Rap guanine nucleotide exchange factor 4 (Homo sapiens, UniProt Q8WZA2)           < 3.52
2      N#Cc1c(C2CCCCC2)nc(SCC(=O)O)[nH]c1=O  Rap guanine nucleotide exchange factor 4 (Homo sapiens, UniProt Q8WZA2)           < 3.52
3  N#Cc1c(C2CCCCC2)nc(Nc2ccc(Cl)cc2)[nH]c1=O  Rap guanine nucleotide exchange factor 4 (Homo sapiens, UniProt Q8WZA2)           < 3.52
